Listed binders paired with reported hCCL1 (100 nM) residual response in %, Protocol #3, mAb 5 µg/mL (33.3 nM)
Tgt: human CCR8 (human, UniProt P51685 1-355)
Assay Name: cell-based or functional assay
Readout Type: hCCL1 (100 nM) residual response in %, Protocol #3, mAb 5 µg/mL (33.3 nM) (%)

binder="anti-CCR8 mAb 2-11 (antibody, V domains shown) VH: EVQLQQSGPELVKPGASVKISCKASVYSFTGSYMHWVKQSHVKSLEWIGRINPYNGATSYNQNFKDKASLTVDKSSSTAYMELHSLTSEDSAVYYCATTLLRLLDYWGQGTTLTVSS VL: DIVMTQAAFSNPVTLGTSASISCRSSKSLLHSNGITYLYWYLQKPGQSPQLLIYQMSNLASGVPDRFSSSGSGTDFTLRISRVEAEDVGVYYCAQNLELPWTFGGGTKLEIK" experimental_result=73
binder="anti-CCR8 mAb 2-9 (antibody, V domains shown) VH: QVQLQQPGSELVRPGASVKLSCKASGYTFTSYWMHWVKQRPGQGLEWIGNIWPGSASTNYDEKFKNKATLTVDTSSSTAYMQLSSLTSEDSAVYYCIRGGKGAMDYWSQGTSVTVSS VL: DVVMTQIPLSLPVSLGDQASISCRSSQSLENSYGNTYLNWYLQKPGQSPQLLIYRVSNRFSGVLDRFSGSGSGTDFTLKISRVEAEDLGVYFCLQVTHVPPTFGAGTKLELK" experimental_result=45
